Origin of values: PubChem BioAssay (NCI)

# Test system: HT29 colon
# test_method_notes: NCI tumour cell line growth inhibition, 48 h
measured_endpoint: TGI

Can you share its TGI? I mean this compound: "Cc1ccc(Cc2nn(C)c(=O)n2-n2cccc2)cc1"
> 100 µM

Can you share its TGI? I mean this compound: "CN(C)c1ccc(/C=C2\N=C(c3ccccc3)N(/N=C3\C(=O)Nc4ccccc43)C2=O)cc1"
> 100 µM

Can you share its TGI? I mean this compound: "O=C1c2ccccc2CCC1(Br)Br"
4.43 µM

Can you share its TGI? I mean this compound: CN1CCc2cc(O)c3cc2C1Cc1ccc(cc1)Oc1cc(ccc1O)CC1c2c(cc4c(c2O3)OCO4)CCN1C (stereo unspecified)
74.4 µM

Can you share its TGI? I mean this compound: "CCCCCCCCCCCCCCCCNc1ccc2c(c1)OCCOCCOCCOCCO2"
10.9 µM

Can you share its TGI? I mean this compound: "CCCCCCCCCCNC(=S)OCCCC"
37.4 µM

Can you share its TGI? I mean this compound: "COc1cc([N+](=O)[O-])c(OC)cc1-c1nc2n(c1/C(N)=N/C(=N)N)CCS2"
> 100 µM

Can you share its TGI? I mean this compound: "N#Cc1nc(C2SCCCS2)oc1N"
> 100 µM

Can you share its TGI? I mean this compound: "NS(=O)(=O)c1ccc(N=Nc2nc3[nH]cnc(=S)c3[nH]2)cc1"
> 68.2 µM

Can you share its TGI? I mean this compound: N#CC(C(=O)C(=O)Nc1ccc(Cl)c(Cl)c1)c1ccc(Cl)cc1 (stereo unspecified)
> 100 µM

Can you share its TGI? I mean this compound: "CC(=O)[C@]1(C)[C@H](C)O[C@](C)(CO)[C@H]1O[Si](C)(C)c1ccccc1"
> 100 µM
